Quick reference: normalized growth of the listed items.
Experiment: chemical genetic growth profiling, strain panel (AID 1159580);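 also: tested at 20 µM; growth read once vehicle control cultures reached saturation at 30 °C; 1 = growth at the plate median or of vehicle wells; lower values mean less growth of the strain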
Conditions: S. cerevisiae deletion strains, growth OD, locus YER002W, strain NOP16, active compounds read low
The whole screen tested about 5,500 compounds, of which about 2,000 (36%) were called active. Another 18% or so got no clear call; they are omitted. Some of the results follow.
Output: the number by itself.

Observe how each entry below is paired with its result.
* C#CC(N)CCC(=O)O (centres undefined) | 1.01
* S=C(Nc1ccccc1)Nc1nccs1 | 0.991
* O=C1NC(c2cccc([N+](=O)[O-])c2)=CCN1c1ccccc1O | 1

Now, please, on to the next compound.
Q: So what does the record say about normalized growth for NS(=O)(=O)c1cccc2c1c([N+](=O)[O-])cc1nc(O)c(O)nc12 ?
Result: 0.999
